// data source = paper PMC5537347

List of MIC50 tested on P. aeruginosa and A. baumannii isolates.
Peptide text beside a SMILES is read from it.
Write the answer as a number in µM, unit excluded.

CC[C@@H](C)[C@@H](NC(=O)[C@@H](CCCNC(=N)N)NC(=O)[C@@H](CCCNC(=N)N)NC(=O)[C@@H](CC(C)C)NC(=O)[C@@H](Cc1c[nH]c2ccccc12)NC(=O)[C@@H](C)NC(=O)[C@@H](CCCCN)NC(=O)[C@H](NC(=O)[C@@H](CCCNC(=N)N)NC(=O)[C@@H](CCCNC(=N)N)NC(=O)[C@@H](CC(C)C)NC(=O)[C@H](N)Cc1c[nH]c2ccccc12)[C@H](C)CC)C(=O)N[C@H](CCCCN)C(=O)N[C@H](C)C(N)=O [D-RR4] :: 2
CC[C@H](C)[C@H](NC(=O)[C@H](Cc1c[nH]c2ccccc12)NC(=O)[C@H](CCCCN)NC(=O)[C@H](CCCCN)NC(=O)[C@@H](NC(=O)[C@H](CCCNC(=N)N)NC(=O)[C@H](CCCNC(=N)N)NC(=O)[C@@H](NC(=O)[C@@H](N)Cc1c[nH]c2ccccc12)[C@@H](C)CC)[C@@H](C)CC)C(=O)N[C@@H](CCCNC(=N)N)C(=O)N[C@@H](CCCNC(=N)N)C(=O)N[C@H](C(=O)N[C@@H](Cc1c[nH]cn1)C(=O)N[C@@H](CCCCN)C(=O)O)C(C)C [RR2] (H-WIRRIKKWIRRVHK-OH; N-terminus and C-terminus assumed) :: 4
CC[C@H](C)[C@H](NC(=O)[C@H](CCCNC(=N)N)NC(=O)[C@H](CCCNC(=N)N)NC(=O)[C@H](CC(C)C)NC(=O)[C@@H](N)Cc1c[nH]c2ccccc12)C(=O)N[C@@H](CCCCN)C(=O)N[C@@H](C)C(=O)N[C@@H](Cc1c[nH]c2ccccc12)C(=O)N[C@@H](CC(C)C)C(=O)N[C@@H](CCCNC(=N)N)C(=O)N[C@@H](CCCNC(=N)N)C(=O)N[C@@H](CCCCN)C(=O)N[C@@H](CCCNC(=N)N)C(=O)N[C@@H](CCCCN)C(=O)O [RR3] (H-WLRRIKAWLRRKRK-OH; N-terminus and C-terminus assumed) :: 8

Now look at this one.
According to the records, this compound CC[C@H](C)[C@H](NC(=O)[C@H](CCCNC(=N)N)NC(=O)[C@H](CCCNC(=N)N)NC(=O)[C@H](CC(C)C)NC(=O)[C@H](Cc1c[nH]c2ccccc12)NC(=O)[C@H](C)NC(=O)[C@H](CCCCN)NC(=O)[C@@H](NC(=O)[C@H](CCCNC(=N)N)NC(=O)[C@H](CCCNC(=N)N)NC(=O)[C@H](CC(C)C)NC(=O)[C@@H](N)Cc1c[nH]c2ccccc12)[C@@H](C)CC)C(=O)N[C@@H](CCCCN)C(=O)N[C@@H](C)C(=O)O [RR4] displays MIC50 of 4

----------
Tested on: human red blood cells
PROCEDURE DETAILS: Hemolysis assay
Assay type: cell-based
RECORDED CONDITIONS: red cells of human
Peptide text beside a SMILES is read from it.
// HC50 lookup, one value per entry
Please reply with the bare figure in µM and do not write the unit itself.

CC[C@@H](C)[C@@H](NC(=O)[C@@H](CCCNC(=N)N)NC(=O)[C@@H](CCCNC(=N)N)NC(=O)[C@@H](CC(C)C)NC(=O)[C@@H](Cc1c[nH]c2ccccc12)NC(=O)[C@@H](C)NC(=O)[C@@H](CCCCN)NC(=O)[C@H](NC(=O)[C@@H](CCCNC(=N)N)NC(=O)[C@@H](CCCNC(=N)N)NC(=O)[C@@H](CC(C)C)NC(=O)[C@H](N)Cc1c[nH]c2ccccc12)[C@H](C)CC)C(=O)N[C@H](CCCCN)C(=O)N[C@H](C)C(N)=O [D-RR4] :: 256
CC[C@H](C)[C@H](NC(=O)[C@H](Cc1c[nH]c2ccccc12)NC(=O)[C@H](CCCCN)NC(=O)[C@H](CCCCN)NC(=O)[C@@H](NC(=O)[C@H](CCCNC(=N)N)NC(=O)[C@H](CCCNC(=N)N)NC(=O)[C@@H](NC(=O)[C@@H](N)Cc1c[nH]c2ccccc12)[C@@H](C)CC)[C@@H](C)CC)C(=O)N[C@@H](CCCNC(=N)N)C(=O)N[C@@H](CCCNC(=N)N)C(=O)N[C@H](C(=O)N[C@@H](Cc1c[nH]cn1)C(=O)N[C@@H](CCCCN)C(=O)O)C(C)C [RR2] (H-WIRRIKKWIRRVHK-OH; N-terminus and C-terminus assumed) :: 256

In plain terms, CC[C@H](C)[C@H](NC(=O)[C@H](CCCNC(=N)N)NC(=O)[C@H](CCCNC(=N)N)NC(=O)[C@H](CC(C)C)NC(=O)[C@H](Cc1c[nH]c2ccccc12)NC(=O)[C@H](C)NC(=O)[C@H](CCCCN)NC(=O)[C@@H](NC(=O)[C@H](CCCNC(=N)N)NC(=O)[C@H](CCCNC(=N)N)NC(=O)[C@H](CC(C)C)NC(=O)[C@@H](N)Cc1c[nH]c2ccccc12)[C@@H](C)CC)C(=O)N[C@@H](CCCCN)C(=O)N[C@@H](C)C(=O)O [RR4] has a documented HC50 of 256
